Parameter KM: see the listing below.
B1: glmS ribozyme (parent)
chain: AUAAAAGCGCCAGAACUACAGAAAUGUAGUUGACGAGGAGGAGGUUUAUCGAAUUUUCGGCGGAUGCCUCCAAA

# Variants of: B1
# Experiment description: KM; higher = weaker cofactor use; RNA array
# Test conditions: with glucosamine-6-phosphate
Your answer is read as µM, so omit the unit and give the number.

[[record]]
var = "C10U G60A C71U"
measure = "KM"
result_unit = "µM"
numeric_readout = 2050

[[record]]
var = "U55C"
measure = "KM"
result_unit = "µM"
numeric_readout = 2000


API: the following record is the query input.
Field request: KM | item: G44C 1980
